Molecular target: T1, ZFP SBS#1287 (synthetic)
T1 chain: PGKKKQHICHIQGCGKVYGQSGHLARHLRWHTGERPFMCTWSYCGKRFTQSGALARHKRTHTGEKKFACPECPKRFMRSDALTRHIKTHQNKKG
Experiment: EMSA
Settings: tags: MBP fusion
Attribute measured: pKd
The meaning of pKd here: minus log10 of the concentration in molar units.

Query: Entry under review: GTGGTAGGA (dsDNA) DNA 1: GTGGTAGGA DNA 2: TCCTACCAC . Reported pKd?
Reply: 9.82
